- target-or-system: MAP4K3 (human) (UniProt Q8IVH8)
- Sequence (Q8IVH8 whole entry, looked up): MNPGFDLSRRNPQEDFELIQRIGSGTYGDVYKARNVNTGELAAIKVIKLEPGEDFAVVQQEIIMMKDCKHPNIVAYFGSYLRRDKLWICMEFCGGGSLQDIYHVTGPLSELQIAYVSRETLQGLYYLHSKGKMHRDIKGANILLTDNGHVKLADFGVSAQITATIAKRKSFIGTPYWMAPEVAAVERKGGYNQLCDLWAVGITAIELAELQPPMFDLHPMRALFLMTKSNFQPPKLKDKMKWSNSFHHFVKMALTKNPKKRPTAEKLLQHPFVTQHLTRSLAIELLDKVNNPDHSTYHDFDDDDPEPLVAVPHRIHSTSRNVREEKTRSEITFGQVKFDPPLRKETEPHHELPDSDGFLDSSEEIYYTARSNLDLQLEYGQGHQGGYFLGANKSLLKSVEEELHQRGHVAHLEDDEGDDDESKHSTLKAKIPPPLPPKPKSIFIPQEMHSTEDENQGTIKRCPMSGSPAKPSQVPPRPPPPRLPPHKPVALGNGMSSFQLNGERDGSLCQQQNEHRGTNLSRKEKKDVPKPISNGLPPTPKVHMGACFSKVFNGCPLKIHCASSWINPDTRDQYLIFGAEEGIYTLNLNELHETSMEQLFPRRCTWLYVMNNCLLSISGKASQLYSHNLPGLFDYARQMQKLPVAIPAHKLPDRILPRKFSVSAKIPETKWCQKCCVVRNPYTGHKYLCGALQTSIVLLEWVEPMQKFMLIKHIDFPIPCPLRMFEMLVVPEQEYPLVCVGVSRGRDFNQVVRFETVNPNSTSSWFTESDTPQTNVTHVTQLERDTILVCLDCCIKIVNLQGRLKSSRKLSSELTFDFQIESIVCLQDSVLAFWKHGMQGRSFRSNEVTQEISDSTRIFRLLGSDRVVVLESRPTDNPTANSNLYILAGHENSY
- experiment-summary: KINOMEscan competition binding
- condition: compound 10.0 µM
experimental-readout: kinase still bound, per cent of control (%)

[[record]]
compound = "COc1ccc(N(C(=O)Oc2cc(C(=O)Nc3cccc(C(F)(F)F)c3)ccc2C)c2ccnc(Nc3ccc(N4CCN(C)CC4)cc3)n2)c(OC)c1"
experimental_readout = "kinase still bound, per cent of control"
observed_value = 100

[[record]]
compound = "CNC(=O)Nc1ccc(-c2nc(N3CC4CCC(C3)O4)c3cnn(C4CCC5(CC4)OCCO5)c3n2)cc1"
experimental_readout = "kinase still bound, per cent of control"
observed_value = 94

[[record]]
compound = "CCCS(=O)(=O)Nc1ccc(F)c(C(=O)c2c[nH]c3ncc(Cl)cc23)c1F"
experimental_readout = "kinase still bound, per cent of control"
observed_value = 91

[[record]]
compound = "CC1=C(C(=O)Nc2cc3cn[nH]c3cc2F)C(c2ccc(C(F)(F)F)cc2)CC(=O)N1 (centres undefined)"
experimental_readout = "kinase still bound, per cent of control"
observed_value = 77


###

Measured kinase still bound, per cent of control by item
- System: RET (human), P07949 [V804L]
- Sequence (P07949 whole entry V804L, looked up): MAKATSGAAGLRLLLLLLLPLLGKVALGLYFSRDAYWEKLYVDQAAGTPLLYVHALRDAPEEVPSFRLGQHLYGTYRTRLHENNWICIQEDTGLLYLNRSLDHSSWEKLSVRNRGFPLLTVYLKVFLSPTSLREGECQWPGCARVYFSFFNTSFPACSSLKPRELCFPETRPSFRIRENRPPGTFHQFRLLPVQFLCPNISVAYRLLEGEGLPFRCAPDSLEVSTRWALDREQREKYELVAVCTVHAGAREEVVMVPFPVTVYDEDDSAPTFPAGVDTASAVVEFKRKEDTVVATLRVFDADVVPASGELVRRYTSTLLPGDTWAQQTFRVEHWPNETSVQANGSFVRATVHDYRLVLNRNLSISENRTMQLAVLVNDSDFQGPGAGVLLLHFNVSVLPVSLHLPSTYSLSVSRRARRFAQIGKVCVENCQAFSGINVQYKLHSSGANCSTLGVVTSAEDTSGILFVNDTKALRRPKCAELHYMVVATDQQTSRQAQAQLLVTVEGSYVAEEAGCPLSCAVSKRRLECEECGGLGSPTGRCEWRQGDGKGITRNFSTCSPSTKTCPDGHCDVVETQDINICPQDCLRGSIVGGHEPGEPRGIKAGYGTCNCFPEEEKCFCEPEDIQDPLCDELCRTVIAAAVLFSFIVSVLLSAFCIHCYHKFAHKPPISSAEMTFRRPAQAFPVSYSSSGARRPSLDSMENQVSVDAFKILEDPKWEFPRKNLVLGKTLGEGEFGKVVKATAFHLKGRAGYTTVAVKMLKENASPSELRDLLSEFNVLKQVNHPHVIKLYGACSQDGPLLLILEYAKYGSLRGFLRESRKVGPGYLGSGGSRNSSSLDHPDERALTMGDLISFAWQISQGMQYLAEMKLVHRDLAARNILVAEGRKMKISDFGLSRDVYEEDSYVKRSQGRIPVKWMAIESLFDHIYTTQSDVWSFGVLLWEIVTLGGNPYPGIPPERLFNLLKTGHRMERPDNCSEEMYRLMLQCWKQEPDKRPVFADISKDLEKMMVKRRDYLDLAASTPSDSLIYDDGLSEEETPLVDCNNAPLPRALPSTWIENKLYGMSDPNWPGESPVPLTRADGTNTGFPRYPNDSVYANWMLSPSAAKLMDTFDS
- experiment-summary: KINOMEscan competition binding
- condition: compound 10.0 µM
experimental-readout: kinase still bound, per cent of control (%)

[[record]]
chemical_string = "Cc1n[nH]c2ccc(-c3cncc(OC[C@@H](N)Cc4c[nH]c5ccccc45)c3)cc12"
measure_unit = "%"
observed_value = 12

[[record]]
chemical_string = "C=CC(=O)Nc1ccc(CN(C(=O)Nc2c(Cl)c(OC)cc(OC)c2Cl)c2cc(Nc3ccc(N4CCN(C)CC4)cc3)ncn2)cc1"
measure_unit = "%"
observed_value = 100

[[record]]
chemical_string = "C=CC(=O)Nc1cc(NC(=O)c2ccc(C)c(NC(=O)c3ccno3)c2)cc(C(F)(F)F)c1"
measure_unit = "%"
observed_value = 100

[[record]]
chemical_string = "N#C/C(=C1/Nc2ccccc2S1)c1ccnc(NCCc2cccnc2)n1"
measure_unit = "%"
observed_value = 100

[[record]]
chemical_string = "Cn1c(=O)n(-c2ccc(C(C)(C)C#N)cc2)c2c3cc(-c4cnc5ccccc5c4)ccc3ncc21"
measure_unit = "%"
observed_value = 100


###

- target-or-system: MELK (human)
- experiment-summary: KINOMEscan competition binding
- condition: compound 10.0 µM
Measured kinase still bound, per cent of control by item
experimental-readout: kinase still bound, per cent of control (%)

[[record]]
compound = "CCN1CCN(Cc2ccc(NC(=O)c3ccc(C)c(/C=C/c4cnc5[nH]ccc5c4OC)c3)cc2C(F)(F)F)CC1"
target_or_system = "MELK (human)"
experimental_readout = "kinase still bound, per cent of control"
observed_value = 20

[[record]]
compound = "COc1cc2c(Nc3ccc(NC(=O)c4ccccc4)cc3)ncnc2cc1OCCCN1CCOCC1"
target_or_system = "MELK (human)"
experimental_readout = "kinase still bound, per cent of control"
observed_value = 42

[[record]]
compound = "COc1cc(C)c(Sc2cnc(NC(=O)c3ccc(CNC(C)C(C)C)cc3)s2)cc1C(=O)N1CCN(C(C)=O)CC1 (stereo not drawn)"
target_or_system = "MELK (human)"
experimental_readout = "kinase still bound, per cent of control"
observed_value = 100

[[record]]
compound = "O=c1[nH]c2ccccc2n1C1CCN(Cc2ccc(-c3nc4cc5[nH]cnc5cc4nc3-c3ccccc3)cc2)CC1"
target_or_system = "MELK (human)"
experimental_readout = "kinase still bound, per cent of control"
observed_value = 77

[[record]]
compound = "COc1cc(N2CCC(C(N)=O)CC2)ccc1Nc1nc(N)c(Cl)c(Nc2ccccc2S(=O)(=O)C(C)C)n1"
target_or_system = "MELK (human)"
experimental_readout = "kinase still bound, per cent of control"
observed_value = 100

[[record]]
compound = "N#Cc1cc(-c2ccnc(Nc3ccc(-n4cnc(-c5cccnc5)n4)cc3)n2)cc(N2CCOCC2)c1"
target_or_system = "MELK (human)"
experimental_readout = "kinase still bound, per cent of control"
observed_value = 100

[[record]]
compound = "N#C/C(=C1/Nc2ccccc2S1)c1ccnc(NCCc2cccnc2)n1"
target_or_system = "MELK (human)"
experimental_readout = "kinase still bound, per cent of control"
observed_value = 100

[[record]]
compound = "CCN(CCO)CCCOc1ccc2c(Nc3cc(CC(=O)Nc4cccc(F)c4)[nH]n3)ncnc2c1"
target_or_system = "MELK (human)"
experimental_readout = "kinase still bound, per cent of control"
observed_value = 47


###

- target-or-system: MKNK2 (human)
- experiment-summary: KINOMEscan competition binding
- condition: compound 10.0 µM
Mark 1.0 only when kinase still bound, per cent of control stays strictly below 80%. Values equal to the cut-off are 0.0.

[[record]]
chemical_string = "CCN(CCO)CCCOc1ccc2c(Nc3cc(CC(=O)Nc4cccc(F)c4)[nH]n3)ncnc2c1"
target_or_system = "MKNK2 (human)"
group = 1.0

[[record]]
chemical_string = "CCN1CCN(Cc2ccc(NC(=O)c3ccc(C)c(/C=C/c4cnc5[nH]ccc5c4OC)c3)cc2C(F)(F)F)CC1"
target_or_system = "MKNK2 (human)"
group = 1.0

[[record]]
chemical_string = "COc1cc2c(Nc3ccc(NC(=O)c4ccccc4)cc3)ncnc2cc1OCCCN1CCOCC1"
target_or_system = "MKNK2 (human)"
group = 1.0

[[record]]
chemical_string = "CNC(=O)Nc1ccc(-c2nc(N3CC4CCC(C3)O4)c3cnn(C4CCC5(CC4)OCCO5)c3n2)cc1"
target_or_system = "MKNK2 (human)"
group = 0.0


###

- target-or-system: ULK2 (human)
- experiment-summary: KINOMEscan competition binding
- condition: compound 10.0 µM
Measured kinase still bound, per cent of control by item
experimental-readout: kinase still bound, per cent of control (%)

[[record]]
chemical_string = "CCN(CCO)CCCOc1ccc2c(Nc3cc(CC(=O)Nc4cccc(F)c4)[nH]n3)ncnc2c1"
measure_unit = "%"
observed_value = 100

[[record]]
chemical_string = "N#Cc1cc(-c2ccnc(Nc3ccc(-n4cnc(-c5cccnc5)n4)cc3)n2)cc(N2CCOCC2)c1"
measure_unit = "%"
observed_value = 90

[[record]]
chemical_string = "COc1cc(N2CCC(C(N)=O)CC2)ccc1Nc1nc(N)c(Cl)c(Nc2ccccc2S(=O)(=O)C(C)C)n1"
measure_unit = "%"
observed_value = 100

[[record]]
chemical_string = "N#C/C(=C1/Nc2ccccc2S1)c1ccnc(NCCc2cccnc2)n1"
measure_unit = "%"
observed_value = 83


###

- target-or-system: SYK (human) (UniProt P43405)
- experiment-summary: KINOMEscan competition binding
- condition: compound 10.0 µM
experimental-readout: kinase still bound, per cent of control (%)

[[record]]
compound = "COc1cc2c(Nc3ccc(NC(=O)c4ccccc4)cc3)ncnc2cc1OCCCN1CCOCC1"
observed_value = 69

[[record]]
compound = "COc1ccc(N(C(=O)Oc2cc(C(=O)Nc3cccc(C(F)(F)F)c3)ccc2C)c2ccnc(Nc3ccc(N4CCN(C)CC4)cc3)n2)c(OC)c1"
observed_value = 4

[[record]]
compound = "COc1cc2ncnc(Nc3cccc(Cl)c3)c2cc1OC"
observed_value = 54

[[record]]
compound = "CCN1CCN(Cc2ccc(NC(=O)c3ccc(C)c(/C=C/c4cnc5[nH]ccc5c4OC)c3)cc2C(F)(F)F)CC1"
observed_value = 7.2

[[record]]
compound = "CCCS(=O)(=O)Nc1ccc(F)c(C(=O)c2c[nH]c3ncc(Cl)cc23)c1F"
observed_value = 100

[[record]]
compound = "N#Cc1cc(-c2ccnc(Nc3ccc(-n4cnc(-c5cccnc5)n4)cc3)n2)cc(N2CCOCC2)c1"
observed_value = 25

[[record]]
compound = "COc1cc(C)c(Sc2cnc(NC(=O)c3ccc(CNC(C)C(C)C)cc3)s2)cc1C(=O)N1CCN(C(C)=O)CC1 (stereo unspecified)"
observed_value = 100

[[record]]
compound = "COc1cc(N2CCC(C(N)=O)CC2)ccc1Nc1nc(N)c(Cl)c(Nc2ccccc2S(=O)(=O)C(C)C)n1"
observed_value = 100

[[record]]
compound = "CCc1nc(-c2cccc(C)c2)c(-c2ccnc(NC(=O)c3ccccc3)c2)s1"
observed_value = 88

[[record]]
compound = "CCOc1cc(N2CCC(O)CC2)ccc1Nc1ncc2c(n1)N(C)c1ccccc1C(=O)N2C"
observed_value = 100

[[record]]
compound = "C=CC(=O)Nc1ccc(C(=O)c2sc(Nc3ccc(N4CCN(C)CC4)cc3OC)nc2N)cc1"
observed_value = 100

[[record]]
compound = "N#C/C(=C1/Nc2ccccc2S1)c1ccnc(NCCc2cccnc2)n1"
observed_value = 100

[[record]]
compound = "CC1=C(C(=O)Nc2cc3cn[nH]c3cc2F)C(c2ccc(C(F)(F)F)cc2)CC(=O)N1 (stereo unspecified)"
observed_value = 100

[[record]]
compound = "Cc1cn(-c2cc(C(=O)Nc3ccc(C)c(NC(=O)c4ccno4)c3)cc(C(F)(F)F)c2)cn1"
observed_value = 100

[[record]]
compound = "O=c1[nH]c2ccccc2n1C1CCN(Cc2ccc(-c3nc4cc5[nH]cnc5cc4nc3-c3ccccc3)cc2)CC1"
observed_value = 84

[[record]]
compound = "CNC(=O)Nc1ccc(-c2nc(N3CC4CCC(C3)O4)c3cnn(C4CCC5(CC4)OCCO5)c3n2)cc1"
observed_value = 100


Taken from the kinase profiling compilation of Christmann-Franck et al. (2016).
